Target: human adenosine A2A receptor (Homo sapiens)
Construct: expressed in transfected cells; host or cells: CHO cells, semliki forest virus expression system; membrane preparation
Sequence (P29274 whole entry): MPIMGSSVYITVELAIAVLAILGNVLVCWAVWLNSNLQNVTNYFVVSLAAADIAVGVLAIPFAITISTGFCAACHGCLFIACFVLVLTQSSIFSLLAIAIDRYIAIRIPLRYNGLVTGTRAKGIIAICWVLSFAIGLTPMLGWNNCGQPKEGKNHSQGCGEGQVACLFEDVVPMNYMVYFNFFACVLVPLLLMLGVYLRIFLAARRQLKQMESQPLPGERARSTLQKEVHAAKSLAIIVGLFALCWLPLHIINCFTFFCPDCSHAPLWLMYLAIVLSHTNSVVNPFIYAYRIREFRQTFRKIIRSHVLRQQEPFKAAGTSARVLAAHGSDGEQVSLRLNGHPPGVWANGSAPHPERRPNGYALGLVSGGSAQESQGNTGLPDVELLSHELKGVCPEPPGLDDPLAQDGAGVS
Assay: Human adenosine A2A receptor [3H]-SCH-583261 binding assay (SPA, CHO cell membranes)
Details: [3H]-SCH-583261 1 nM; membranes of CHO cells expressing the recombinant receptor; Ki by Cheng-Prussoff equation; read-out: hA2 (pKi) (converted)
Description: Human Adenosine A2A Receptor The human adenosine A2A receptor was recombinantly expressed in chinese hamster ovary (CHO) cells using the semliki forest virus expression system. […] Assay plates were incubated for 1 hour at room temperature before centrifugation and then bound ligand determined using a Packard Topcount scintillation counter. IC50 values were calculated using a non-linear curve fitting program and Ki values calculated using the Cheng-Prussoff equation.
Assay Metric: Ki (nM)
Give the number; nM is assumed, so skip it.

Solved cases (4 shown):
[
  {
    "Mol": "COc1ccc(N2CCOCC2)c2sc(NC(=O)c3ccnc(NC4CCCC4)c3)nc12",
    "Units": "nM",
    "Ki": 1.48
  },
  {
    "Mol": "COc1ccc(N2CCOCC2)c2sc(NC(=O)c3ccnc(OC(C)C)c3)nc12",
    "Units": "nM",
    "Ki": 2.88
  },
  {
    "Mol": "COc1ccc(N2CCOCC2)c2sc(NC(=O)c3ccnc(OCCN4CCCC4=O)c3)nc12",
    "Units": "nM",
    "Ki": 2.34
  },
  {
    "Mol": "COc1cc(C(=O)Nc2nc3c(OC)ccc(N4CCOCC4)c3s2)ccn1",
    "Units": "nM",
    "Ki": 2.63
  }
]

Input: Quickly give me recorded Ki for COc1ccc(N2CCOCC2)c2sc(NC(=O)c3ccnc(OCCN4CCOCC4)c3)nc12
Output: 0.851

Input: Quickly give me recorded Ki for COc1ccc(N2CCOCC2)c2sc(NC(=O)c3ccc(NCc4ccccn4)nc3)nc12
Output: 1.02

Input: Quickly give me recorded Ki for COc1ccc(N2CCOCC2)c2sc(NC(=O)c3ccnc(NCCN(C)C)c3)nc12
Output: 0.457

Input: Quickly give me recorded Ki for COC(=O)N(C)Cc1cc(C(=O)Nc2nc3c(OC)ccc(N4CCOCC4)c3s2)ccn1
Output: 3.16
